TARGET_OR_TEST_SYSTEM: human PPARδ (Homo sapiens, UniProt Q03181)
Construct: with 137th to 441st amino acids of human PPARδ; expressed in transfected cells; host or cells: COS cells (African green monkey kidney)
Sequence (Q03181 137-441): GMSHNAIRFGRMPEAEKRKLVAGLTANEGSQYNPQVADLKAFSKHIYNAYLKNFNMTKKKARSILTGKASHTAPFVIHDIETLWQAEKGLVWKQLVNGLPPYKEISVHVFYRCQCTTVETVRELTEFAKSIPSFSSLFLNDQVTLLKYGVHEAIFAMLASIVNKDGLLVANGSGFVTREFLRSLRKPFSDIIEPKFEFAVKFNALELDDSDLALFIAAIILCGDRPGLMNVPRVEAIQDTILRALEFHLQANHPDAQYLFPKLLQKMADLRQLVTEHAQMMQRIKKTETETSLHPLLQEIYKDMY
EXPERIMENT_NOTES: Gal4-human PPARδ chimera luciferase transfection assay in COS cells
Assay type: cell-based
CONDITION_PARAMETERS: compound added at 1 μM, luciferase activity with GW501516 1 μM given as 10.0, 16 hours
Overview of recorded hPPAR; Relative activity δ for various molecules
Reply with just the number.

These recorded examples may help you get a feel for the data.
O=C(O)c1ccccc1OCCCCN(CCCOc1ccccc1)c1nc2ccccc2o1	0.1
CCCCCCCN(CCCCOc1cccc(C(=O)O)c1)c1nc2ccccc2o1	0.3
CCCN(CCCCCSc1ccccc1C(=O)O)c1nc2ccccc2o1	0.2
CCCCCCCN(CCSc1ccccc1C(=O)O)c1nc2ccccc2o1	0.2
O=C(O)c1ccccc1SCCN(Cc1ccccc1[N+](=O)[O-])c1nc2ccccc2o1	0.3
CCCCN(CCCCCSc1ccccc1C(=O)O)c1nc2ccccc2o1	0.5
O=C(O)c1ccccc1SCCCCCN(CCCc1ccccc1)c1nc2ccccc2o1	0.8
CCN(CCCCSc1ccccc1C(=O)O)c1nc2ccccc2s1	0.2

Now for a further molecule.
Exercise: Which hPPAR; Relative activity δ is reported for this molecule? O=C(O)c1ccccc1SCCCCCCN(Cc1ccc(Cl)cc1)c1nc2ccccc2o1
Solution: 0.0

* * *

TARGET_OR_TEST_SYSTEM: human PPARγ2 (Homo sapiens, UniProt P37231)
Construct: with 182nd to 505th amino acids of human PPARγ2; expressed in transfected cells; host or cells: COS cells (African green monkey kidney)
Sequence (P37231 182-505): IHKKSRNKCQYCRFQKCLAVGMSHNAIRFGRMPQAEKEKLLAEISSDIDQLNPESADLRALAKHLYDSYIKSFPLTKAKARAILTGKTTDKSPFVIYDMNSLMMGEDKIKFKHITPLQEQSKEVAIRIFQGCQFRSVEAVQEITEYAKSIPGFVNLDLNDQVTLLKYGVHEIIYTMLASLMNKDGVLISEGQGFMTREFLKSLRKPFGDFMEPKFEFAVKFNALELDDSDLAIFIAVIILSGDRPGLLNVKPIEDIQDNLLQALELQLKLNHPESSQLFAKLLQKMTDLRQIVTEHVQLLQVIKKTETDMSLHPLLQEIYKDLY
EXPERIMENT_NOTES: Gal4-human PPARγ2 chimera luciferase transfection assay in COS cells
Format: cell-based
CONDITION_PARAMETERS: compound added at 1 μM, luciferase activity with rosiglitazone 1 μM given as 10.0, 16 hours
OBSERVED_PROPERTY: hPPAR; Relative activity γ
Reply with just the number.

Cc1c(CN(CCSc2ccccc2C(=O)O)c2nc3ccccc3o2)cccc1[N+](=O)[O-]	1.1
CCN(CCCCSc1ccccc1C(=O)O)c1nc2ccccc2s1	1.4
O=C(O)c1ccccc1SCCCCCN(CCCc1ccccc1)c1nc2ccccc2o1	2.7
O=C(O)c1ccccc1SCCCCN(CCOc1ccccc1)c1nc2ccccc2s1	4.6
CCCCCCCN(CCCCOc1cccc(C(=O)O)c1)c1nc2ccccc2o1	1.9

Exercise: Form entry - test system: human PPARγ2 (Homo sapiens, UniProt P37231); read-out: hPPAR; Relative activity γ; compound: CCCCCCCN(CCSc1ccccc1C(=O)O)c1nc2ccccc2o1
Solution: 2.0

Exercise: Now the same for CC(C)N(CCCCCSc1ccccc1C(=O)O)c1nc2ccccc2o1
Solution: 1.4

Exercise: Now the same for O=C(O)c1ccccc1OCCCCN(CCCOc1ccccc1)c1nc2ccccc2o1
Solution: 3.5

Exercise: Now the same for CCCCCCCCN(CCOc1ccccc1C(=O)O)c1nc2ccccc2o1
Solution: 6.2

Exercise: Now the same for CCCCCCCCN(CCCOc1cccc(C(=O)O)c1)c1nc2ccccc2o1
Solution: 1.5

Exercise: Now the same for CCCCCCCCN(CCCCOc1ccccc1C(=O)O)c1nc2ccccc2o1
Solution: 2.9

Exercise: Now the same for O=C(O)c1ccccc1SCCCCCN(CCCOc1ccccc1)c1nc2ccccc2o1
Solution: 2.5

Exercise: Now the same for O=C(O)c1ccccc1SCCCCCN(Cc1ccc(Cl)cc1)c1nc2ccccc2o1
Solution: 3.3

Exercise: Now the same for CCN(CCCCCSc1ccccc1C(=O)O)c1nc2ccccc2o1
Solution: 2.2

Exercise: Now the same for O=C(O)c1ccccc1SCCN(CCCOc1ccccc1)c1nc2ccccc2o1
Solution: 1.6
